Test system: U251 CNS
One label from this list, please: 1 = active, 0 = inactive

Solved cases below.
[
  {
    "MOLECULE": "COc1ccc(Nc2nc3ccccc3c3occc23)cc1",
    "TARGET OR SYSTEM": "U251 CNS",
    "ANSWER LABEL": 0
  },
  {
    "MOLECULE": "CC(C)c1nc(N(C)S(C)(=O)=O)nc(-c2ccc(F)cc2)c1/C=C/[C@@H](O)C[C@@H](O)CC(=O)O",
    "TARGET OR SYSTEM": "U251 CNS",
    "ANSWER LABEL": 0
  },
  {
    "MOLECULE": "Cc1ncc(C(=O)Nc2ccc(CN3CCN(C)CC3)c(C(F)(F)F)c2)cc1C#Cc1ccc(N)nc1",
    "TARGET OR SYSTEM": "U251 CNS",
    "ANSWER LABEL": 0
  },
  {
    "MOLECULE": "COc1cccc(CN(C)c2ccc(CO)c(Cl)c2)c1",
    "TARGET OR SYSTEM": "U251 CNS",
    "ANSWER LABEL": 0
  },
  {
    "MOLECULE": "Cn1cccc1-c1cc(-c2ccccc2)[nH]c(=O)c1C#N",
    "TARGET OR SYSTEM": "U251 CNS",
    "ANSWER LABEL": 0
  },
  {
    "MOLECULE": "CCOC(=O)c1c(C)n(Cc2ccc(Cl)cc2Cl)c2c1cc1oc(=O)c(=O)n3cnc2c13",
    "TARGET OR SYSTEM": "U251 CNS",
    "ANSWER LABEL": 0
  },
  {
    "MOLECULE": "NCCCCC1NC(=O)C(CC(=O)O)NC(=O)CNC(=O)C(CCCN=C(N)N)NC(=O)C(N)CSSCC(C(=O)O)NC(=O)C(CC(=O)O)NC(=O)C2CCCN2C(=O)CNC1=O (centres undefined)",
    "TARGET OR SYSTEM": "U251 CNS",
    "ANSWER LABEL": 0
  },
  {
    "MOLECULE": "CCN1CCN(c2cc(C)nc(N(CCCNc3ccnc4cc(Cl)ccc34)Cc3ccc4c(c3)OCO4)n2)CC1",
    "TARGET OR SYSTEM": "U251 CNS",
    "ANSWER LABEL": 0
  }
]

Shifting focus to the molecule that follows.
### Prompt Give the logged outcome of this assay for the following molecule: CC(C)(O)/C=C/C(=O)[C@](C)(O)[C@H]1[C@H](O)C[C@@]2(C)[C@@H]3CC=C4[C@@H](C[C@H](O)C(=O)C4(C)C)[C@]3(C)C(=O)C[C@]12C
### Response 1

---

Test system: OVCAR-3 ovarian
ASSAY PROTOCOL: NCI tumour cell line growth inhibition, 48 h
MEASURED METRIC: GI50

Worked examples follow.
[
  {
    "MOLECULE": "Cc1cc(Nc2nc(C(=O)Nc3ccccc3)nc3ccccc23)n[nH]1",
    "MEASURED METRIC": "GI50",
    "OBSERVED": "11500 nM"
  },
  {
    "MOLECULE": "O=C1C2=C(C(=O)c3cnccc31)C1C=CC2CC1 (configuration not stated)",
    "MEASURED METRIC": "GI50",
    "OBSERVED": "1850 nM"
  },
  {
    "MOLECULE": "COC(=O)C12CC(NC(=O)c3csc([C@@H](C[C@H](C(C)C)N(C)C(=O)[C@@H](NC(=O)[C@H]4CCCCN4C)C4CC4)OC(C)=O)n3)(C1)C2",
    "MEASURED METRIC": "GI50",
    "OBSERVED": "5.9 nM"
  },
  {
    "MOLECULE": "COc1ccc(NC(=O)/C=C(C)/C=C/C=C(C)/C=C/C2=C(C)CCCC2(C)C)cc1",
    "MEASURED METRIC": "GI50",
    "OBSERVED": "2640 nM"
  }
]

### Prompt Give the reported GI50 for Cn1cccc1-c1cc(-c2ccccc2)[nH]c(=O)c1C#N (system: OVCAR-3 ovarian).
### Response > 100000 nM

### Prompt Give the reported GI50 for CCCCCCCCOC(=O)c1c(C)[nH]c(/C=C2\N=C(c3ccc[nH]3)C=C2OC)c1C (system: OVCAR-3 ovarian).
### Response 27.6 nM

### Prompt Give the reported GI50 for CNNC(=N\S(=O)(=O)c1cc(C)c(Cl)cc1SCc1ccccc1)/N=C/c1ccc([N+](=O)[O-])s1 (system: OVCAR-3 ovarian).
### Response > 44100 nM

---

Parameter log10(TGI): see the listing below.
Tested on: U251 CNS
ASSAY PROTOCOL: NCI tumour cell line growth inhibition, 48 h
Reminder: these figures are log10 of reported TGI, in µM before transformation.

Worked examples follow.
[
  {
    "MOLECULE": "COC(=O)C1=C(CS(=O)c2ccc([N+](=O)[O-])cc2[N+](=O)[O-])C2C=CC1C2 (stereo not given)",
    "log10(TGI)": 1.69
  },
  {
    "MOLECULE": "O=C1C2=C(C(=O)c3cnccc31)C1C=CC2CC1 (stereo not given)",
    "log10(TGI)": 0.50
  },
  {
    "MOLECULE": "CN(Cc1ccc(C(F)(F)F)cc1)CC(O)C(=O)Nc1ccc(Cl)cc1 (stereo not given)",
    "log10(TGI)": 0.50
  },
  {
    "MOLECULE": "Clc1cccc(N2CCN(CCCN3CCc4c([nH]c5ccccc45)C3c3cccnc3)CC2)c1 (stereo not given)",
    "log10(TGI)": 1.38
  }
]

### Prompt Give the reported log10(TGI) for O=C(/C=C/c1ccc(C(F)(F)F)cc1)Nc1ccc(C=C2c3ccccc3C(=O)c3ccccc32)cc1 (system: U251 CNS).
### Response 1.78

---

Parameter TGI: see the listing below.
System: MDA-MB-231 breast
ASSAY PROTOCOL: NCI tumour cell line growth inhibition, 48 h

Worked examples follow.
[
  {
    "MOLECULE": "CS[C@]12[C@@H]3C(=O)N(C)C(=O)[C@@H]3[C@](C)(C(=O)N1C)C(=O)N2c1ccccc1",
    "TARGET OR SYSTEM": "MDA-MB-231 breast",
    "TGI": "> 100 µM"
  },
  {
    "MOLECULE": "COc1ccc(C(Cc2ccccc2)C2NC(=S)NC2=O)cc1 (stereo not given)",
    "TARGET OR SYSTEM": "MDA-MB-231 breast",
    "TGI": "> 25 µM"
  },
  {
    "MOLECULE": "CN1N=C(c2ccncc2)OC1c1cccc(C(F)(F)F)c1 (stereo not given)",
    "TARGET OR SYSTEM": "MDA-MB-231 breast",
    "TGI": "> 100 µM"
  }
]

### Prompt Give the reported TGI for COC(=O)C(CCC(=O)CCl)N1C(=O)c2ccccc2C1=O (stereo not given) (system: MDA-MB-231 breast).
### Response 28.7 µM

### Prompt Give the reported TGI for CC(C)(O)C1CC[C@]2(C)[C@H]3CC[C@@H]4[C@@]5(C)CCCC(C)(C)[C@@H]5CC[C@@]4(C)[C@]3(C)CC[C@@H]12 (stereo not given in full) (system: MDA-MB-231 breast).
### Response > 100 µM

### Prompt Give the reported TGI for O=c1c2cc(-c3ccccc3)sc2ncn1Cc1ccc(Cl)c(Cl)c1 (system: MDA-MB-231 breast).
### Response 25 µM

### Prompt Give the reported TGI for Cc1ccc(S(=O)(=O)NC(=O)NC(CCCCN=C(N)N)C(=O)O)cc1 (stereo not given) (system: MDA-MB-231 breast).
### Response > 100 µM

### Prompt Give the reported TGI for CCOC(=O)c1c(C)nc2c(c1-c1cn(-c3ccccc3)nc1-c1ccccc1)C(=O)c1ccccc1-2 (system: MDA-MB-231 breast).
### Response > 100 µM

### Prompt Give the reported TGI for CCCC1C(=O)Nc2cccc3ncn(c23)C1=O (stereo not given) (system: MDA-MB-231 breast).
### Response > 100 µM

### Prompt Give the reported TGI for CC1CN(S(=O)(=O)c2oc(-c3ccc(Cl)cc3)nc2C#N)CC(C)O1 (stereo not given) (system: MDA-MB-231 breast).
### Response 3.8 µM

---

System: SNB-19 CNS
ASSAY PROTOCOL: NCI tumour cell line growth inhibition, 48 h
Parameter TGI: see the listing below.
Numbers only here, please. The scale is µM.

[
  {
    "COMPOUND": "CCOC(=O)c1c(C)n(Cc2ccc(Cl)cc2Cl)c2c1cc1oc(=O)c(=O)n3cnc2c13",
    "TARGET OR SYSTEM": "SNB-19 CNS",
    "MEASURE UNIT": "µM",
    "OBSERVED": 32.1
  },
  {
    "COMPOUND": "CC1CN(S(=O)(=O)c2oc(-c3ccc(Cl)cc3)nc2C#N)CC(C)O1 (stereo not given)",
    "TARGET OR SYSTEM": "SNB-19 CNS",
    "MEASURE UNIT": "µM",
    "OBSERVED": 25
  },
  {
    "COMPOUND": "COc1ccc2nc3c(c(NCCCN(C)C)c2c1)CCCC3",
    "TARGET OR SYSTEM": "SNB-19 CNS",
    "MEASURE UNIT": "µM",
    "OBSERVED": 48.8
  }
]

Below: the item to evaluate.
### Prompt Give the reported TGI for COc1ccc(Nc2nc3ccccc3c3occc23)cc1 (system: SNB-19 CNS).
### Response 16.5
